biological target: PI3Kγ (p110γ) Recombinant Human Protein (Homo sapiens (Human), UniProt P48736); experiment: PI3K-γ Scintillation Proximity Assay; conditions: read-out: PI3K-gamma SPA IC50
Sequence (P48736 whole entry): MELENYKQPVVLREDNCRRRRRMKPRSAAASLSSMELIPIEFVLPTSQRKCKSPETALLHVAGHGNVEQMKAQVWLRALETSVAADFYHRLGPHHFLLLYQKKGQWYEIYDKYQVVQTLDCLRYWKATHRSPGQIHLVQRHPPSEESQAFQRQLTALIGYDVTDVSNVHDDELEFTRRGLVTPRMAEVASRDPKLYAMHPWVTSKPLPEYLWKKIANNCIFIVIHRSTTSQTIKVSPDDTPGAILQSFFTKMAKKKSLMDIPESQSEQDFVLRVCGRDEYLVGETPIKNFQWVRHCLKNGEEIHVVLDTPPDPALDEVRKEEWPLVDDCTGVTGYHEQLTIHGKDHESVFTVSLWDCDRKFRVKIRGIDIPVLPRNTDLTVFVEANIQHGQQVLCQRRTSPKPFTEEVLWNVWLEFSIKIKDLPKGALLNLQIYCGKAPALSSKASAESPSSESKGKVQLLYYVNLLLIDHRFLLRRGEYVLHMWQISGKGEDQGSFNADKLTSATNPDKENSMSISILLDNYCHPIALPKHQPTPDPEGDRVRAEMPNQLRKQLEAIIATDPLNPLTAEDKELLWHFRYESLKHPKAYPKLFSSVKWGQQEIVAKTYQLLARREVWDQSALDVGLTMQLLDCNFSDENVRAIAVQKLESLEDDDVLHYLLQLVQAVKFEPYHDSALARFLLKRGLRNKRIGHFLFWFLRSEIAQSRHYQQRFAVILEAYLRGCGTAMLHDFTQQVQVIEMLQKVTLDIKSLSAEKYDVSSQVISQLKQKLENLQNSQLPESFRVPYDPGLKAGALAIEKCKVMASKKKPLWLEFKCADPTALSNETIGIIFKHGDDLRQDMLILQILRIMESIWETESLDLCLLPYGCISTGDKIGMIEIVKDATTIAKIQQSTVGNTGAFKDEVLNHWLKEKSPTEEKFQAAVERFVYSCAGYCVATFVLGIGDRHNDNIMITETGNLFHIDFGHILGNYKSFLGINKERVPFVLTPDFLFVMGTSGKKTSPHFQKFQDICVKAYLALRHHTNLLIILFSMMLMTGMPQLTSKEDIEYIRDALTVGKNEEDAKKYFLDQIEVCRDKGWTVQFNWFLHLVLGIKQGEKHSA
pIC50: −log10 of the molar value. Counter-ions that a name gives are not always drawn.
Can you tell me pIC50 for the items I'm about to list?

Ask: GET /values?readout=pIC50&system=PI3Kγ (p110γ) Recombinant Human Protein (Homo sapiens (Human), UniProt P48736)&item= CNc1nnc(-c2cc(-c3cncc(OC)c3)ccn2)[nH]1 [Example 68, trifluoroacetate salt]
Result: ≥ 6.30

Ask: GET /values?readout=pIC50&system=PI3Kγ (p110γ) Recombinant Human Protein (Homo sapiens (Human), UniProt P48736)&item= COc1cncc(-c2ccnc(-c3ncc(C4CC4)[nH]3)c2)c1
Result: ≥ 7.30

Ask: GET /values?readout=pIC50&system=PI3Kγ (p110γ) Recombinant Human Protein (Homo sapiens (Human), UniProt P48736)&item= CS(=O)(=O)c1cncc(-c2ccnc(-c3ncc(C(F)(F)F)[nH]3)c2)c1 [Example 109, trifluoroacetate salt]
Result: ≥ 7.30

Ask: GET /values?readout=pIC50&system=PI3Kγ (p110γ) Recombinant Human Protein (Homo sapiens (Human), UniProt P48736)&item= Cc1[nH]c(-c2cc(-c3cncc(N4CCOCC4)c3)ccn2)nc1C(=O)NCc1ccccc1 [Example 272, trifluoroacetate salt]
Result: ≥ 7.30

Ask: GET /values?readout=pIC50&system=PI3Kγ (p110γ) Recombinant Human Protein (Homo sapiens (Human), UniProt P48736)&item= Cc1[nH]c(-c2cc(-c3cncc(N4CCOCC4)c3)ccn2)nc1CN(C)C
Result: < 6.30

Ask: GET /values?readout=pIC50&system=PI3Kγ (p110γ) Recombinant Human Protein (Homo sapiens (Human), UniProt P48736)&item= COc1cncc(-c2ccnc(-c3nc(C)c(-c4ccccc4)[nH]3)c2)c1 [Example 82, trifluoroacetate salt]
Result: ≥ 7.30

Ask: GET /values?readout=pIC50&system=PI3Kγ (p110γ) Recombinant Human Protein (Homo sapiens (Human), UniProt P48736)&item= Cc1nc(-c2cc(-c3cncc(C(=O)N4CCN(C)CC4)c3)ccn2)[nH]c1C
Result: ≥ 6.30

Ask: GET /values?readout=pIC50&system=PI3Kγ (p110γ) Recombinant Human Protein (Homo sapiens (Human), UniProt P48736)&item= Cc1nc(-c2cc(-c3cncc(C(=O)N4CC[C@@H](O)C4)c3)ccn2)[nH]c1C [Example 163, trifluoroacetate salt]
Result: ≥ 7.30

Ask: GET /values?readout=pIC50&system=PI3Kγ (p110γ) Recombinant Human Protein (Homo sapiens (Human), UniProt P48736)&item= Cc1nc(-c2cc(-c3cncc(Cl)c3)ccn2)[nH]c1C
Result: ≥ 7.00

Ask: GET /values?readout=pIC50&system=PI3Kγ (p110γ) Recombinant Human Protein (Homo sapiens (Human), UniProt P48736)&item= Cc1nc(-c2cc(-c3cncc(C(=O)N4CC[C@@H](N(C)C)C4)c3)ccn2)[nH]c1C [Example 161, trifluoroacetate salt]
Result: ≥ 7.30

Ask: GET /values?readout=pIC50&system=PI3Kγ (p110γ) Recombinant Human Protein (Homo sapiens (Human), UniProt P48736)&item= CCc1cnc(-c2cc(-c3cncc(S(C)(=O)=O)c3)ccn2)[nH]1 [Example 110, trifluoroacetate salt]
Result: ≥ 7.30

Ask: GET /values?readout=pIC50&system=PI3Kγ (p110γ) Recombinant Human Protein (Homo sapiens (Human), UniProt P48736)&item= Cc1[nH]c(-c2cc(-c3cncc(N4CCOCC4)c3)ccn2)nc1C(=O)NC(C)(C)C
Result: ≥ 7.30

Ask: GET /values?readout=pIC50&system=PI3Kγ (p110γ) Recombinant Human Protein (Homo sapiens (Human), UniProt P48736)&item= Cc1[nH]c(-c2cc(-c3cncc(N4CCOCC4)c3)ccn2)nc1C(=O)N[C@H]1CCN(Cc2ccccc2)C1 [Example 279, trifluoroacetate salt]
Result: ≥ 7.00

Ask: GET /values?readout=pIC50&system=PI3Kγ (p110γ) Recombinant Human Protein (Homo sapiens (Human), UniProt P48736)&item= Cc1[nH]c(-c2cc(-c3cncc(N4CCOCC4)c3)ccn2)nc1C(C)O (racemic)
Result: ≥ 6.30

Ask: GET /values?readout=pIC50&system=PI3Kγ (p110γ) Recombinant Human Protein (Homo sapiens (Human), UniProt P48736)&item= CCOC(=O)c1nc(-c2cc(-c3cncc(S(C)(=O)=O)c3)ccn2)[nH]c1C
Result: ≥ 7.00

Ask: GET /values?readout=pIC50&system=PI3Kγ (p110γ) Recombinant Human Protein (Homo sapiens (Human), UniProt P48736)&item= CCCN(C)C(=O)c1cncc(-c2ccnc(-c3nc(C)c(C)[nH]3)c2)c1
Result: ≥ 7.00

Ask: GET /values?readout=pIC50&system=PI3Kγ (p110γ) Recombinant Human Protein (Homo sapiens (Human), UniProt P48736)&item= CNC(=O)c1nc(-c2cc(-c3cnn(Cc4ccc(Cl)cc4)c3)ccn2)[nH]c1C
Result: ≥ 7.30

Ask: GET /values?readout=pIC50&system=PI3Kγ (p110γ) Recombinant Human Protein (Homo sapiens (Human), UniProt P48736)&item= FC(F)(F)c1cnc(-c2cc(-c3cncc(N4CCOCC4)c3)ccn2)[nH]1 [Example 99, trifluoroacetate salt]
Result: ≥ 7.30

Ask: GET /values?readout=pIC50&system=PI3Kγ (p110γ) Recombinant Human Protein (Homo sapiens (Human), UniProt P48736)&item= COc1cncc(-c2ccnc(-c3ncc(-c4ccccn4)[nH]3)c2)c1 [Example 87, trifluoroacetate salt]
Result: ≥ 7.00

Ask: GET /values?readout=pIC50&system=PI3Kγ (p110γ) Recombinant Human Protein (Homo sapiens (Human), UniProt P48736)&item= COc1cncc(-c2ccnc(-c3nnc(-c4ccccc4)[nH]3)c2)c1
Result: ≥ 6.30

Ask: GET /values?readout=pIC50&system=PI3Kγ (p110γ) Recombinant Human Protein (Homo sapiens (Human), UniProt P48736)&item= O=C(O)c1ccccc1Cn1cc(-c2ccnc(-c3ncc(-c4ccccc4)[nH]3)c2)cn1 [Example 33, trifluoroacetate salt]
Result: < 6.30

Ask: GET /values?readout=pIC50&system=PI3Kγ (p110γ) Recombinant Human Protein (Homo sapiens (Human), UniProt P48736)&item= COC(=O)c1cccc(Cn2cc(-c3ccnc(-c4ncc(-c5ccccc5)[nH]4)c3)cn2)c1 [Example 31, trifluoroacetate salt]
Result: ≥ 6.30

Ask: GET /values?readout=pIC50&system=PI3Kγ (p110γ) Recombinant Human Protein (Homo sapiens (Human), UniProt P48736)&item= CCOC(=O)c1nc(-c2cc(-c3cncc(OC)c3)ccn2)[nH]c1C(F)(F)F
Result: < 6.30

Ask: GET /values?readout=pIC50&system=PI3Kγ (p110γ) Recombinant Human Protein (Homo sapiens (Human), UniProt P48736)&item= Cc1nc(-c2cc(-c3cncc(NC(C)c4ccccc4)c3)ccn2)[nH]c1C (racemic) [Example 145C, trifluoroacetate salt]
Result: ≥ 7.30

Ask: GET /values?readout=pIC50&system=PI3Kγ (p110γ) Recombinant Human Protein (Homo sapiens (Human), UniProt P48736)&item= Cc1nc(-c2cc(-c3cncc(C(=O)N4CC[C@H](O)C4)c3)ccn2)[nH]c1C
Result: ≥ 7.30

Ask: GET /values?readout=pIC50&system=PI3Kγ (p110γ) Recombinant Human Protein (Homo sapiens (Human), UniProt P48736)&item= Cc1nc(-c2cc(-c3cncc(C(=O)N4CC[C@@H](F)C4)c3)ccn2)[nH]c1C [Example 155, trifluoroacetate salt]
Result: ≥ 7.30

Ask: GET /values?readout=pIC50&system=PI3Kγ (p110γ) Recombinant Human Protein (Homo sapiens (Human), UniProt P48736)&item= Cc1nc(-c2cc(-c3cncc(C(=O)N[C@@H]4CCOC4)c3)ccn2)[nH]c1C [Example 176, trifluoroacetate salt]
Result: ≥ 7.00

Ask: GET /values?readout=pIC50&system=PI3Kγ (p110γ) Recombinant Human Protein (Homo sapiens (Human), UniProt P48736)&item= Cc1nc(-c2cc(-c3cncc(C(=O)N4CCC(C)(O)C4)c3)ccn2)[nH]c1C (racemic) [Example 180, trifluoroacetate salt]
Result: ≥ 7.30

Ask: GET /values?readout=pIC50&system=PI3Kγ (p110γ) Recombinant Human Protein (Homo sapiens (Human), UniProt P48736)&item= CCC1CCN(C(=O)c2cncc(-c3ccnc(-c4nc(C)c(C)[nH]4)c3)c2)C1 (centres unmarked) [Example 211, trifluoroacetate salt]
Result: ≥ 7.30
